experimental.protocol: Antioxidant activity assessed as DPPH radical scavenging capacity after 30 mins by UV spectrophotometry
Format: physicochemical
measure.name: pIC50
As a rule, pIC50 stands for the negative log10 of the concentration, concentration in M.

Illustrative cases are given below, each with its answer.
>>> recorded_result("C/C(=C\\c1c(C)c(O)cc2c1[nH]c1c(O)ccc(CO)c12)CCC(C)C")
5.00
>>> recorded_result("CCCOC(=O)c1cc(O)c(O)c(O)c1 [PROPYL GALLATE]")
5.21
>>> recorded_result("Cc1c(C)c2c(c(C)c1O)CC[C@@](C)(CCC[C@H](C)CCC[C@H](C)CCCC(C)C)O2")
4.81
>>> recorded_result("CCCCCCCc1c(C)c(O)cc2c1[nH]c1ccccc12")
4.92
>>> recorded_result("CC[C@H](C)CC/C(C)=C/c1c(C)c(O)cc2c1[nH]c1c(O)ccc(C=O)c12")
5.12

Consider now this further molecule.
(Q) What value of pIC50 has been reported for the following molecule? CC1=NN(c2ccccc2)C(=O)C1
(A) 4.71

---

Reported pIC50 values are given for each entry in this list.
experimental.protocol: Antioxidant activity assessed as DPPH radical scavenging capacity after 30 mins by UV spectrophotometry
Assay type: physicochemical
As a rule, pIC50 stands for the negative log10 of the concentration, concentration in M.

Illustrative cases are given below, each with its answer.
>>> recorded_result("Cc1c(O)cc2c([nH]c3ccccc32)c1CC(C)O (stereo not given)")
4.92
>>> recorded_result("C/C(=C\\c1c(C)c(O)cc2c1[nH]c1c(O)ccc(C=O)c12)CCC(C)C")
5.15
>>> recorded_result("CC(C)=CCc1ccc2[nH]c3c(CC(C)O)c(C)c(O)cc3c2c1 (stereo not given)")
4.92

Consider now this further compound.
(Q) What value of pIC50 has been reported for the following compound? CC[C@H](C)CC/C(C)=C/c1c(C)c(O)cc2c1[nH]c1c(O)ccc(CO)c12
(A) 5.01

---

experimental.protocol: Cytotoxicity against human HCT116 cells assessed as reduction cell viability at 100 uM after 48 hrs by MTT assay
Assay type: cell-based
condition: hct-116, 48 h
measure.name: Activity

Illustrative cases are given below, each with its answer.
>>> recorded_result("CC[C@H](C)CC/C(C)=C/c1c(C)c(O)cc2c1[nH]c1c(O)ccc(CO)c12")
"Non-toxic"
>>> recorded_result("C/C(=C\\c1c(C)c(O)cc2c1[nH]c1c(O)ccc(CO)c12)CCC(C)C")
"Non-toxic"
>>> recorded_result("CC(C)=CCc1ccc2[nH]c3c(CC(C)O)c(C)c(O)cc3c2c1 (stereo unspecified)")
"Toxic"
>>> recorded_result("CC1=NN(c2ccccc2)C(=O)C1 [EDARAVONE]")
"Non-toxic"
>>> recorded_result("CC(C)=CCc1ccc2[nH]c3c(c2c1)C(=O)C(=O)C(C)=C3CC(C)O (stereo unspecified)")
"Toxic"

(Q) What value of Activity has been reported for the following compound? C/C(=C\c1c(C)c(O)cc2c1[nH]c1c(O)ccc(C=O)c12)CCC(C)C
(A) Non-toxic

(Q) What value of Activity has been reported for the following compound? Cc1c(C)c2c(c(C)c1O)CC[C@@](C)(CCC[C@H](C)CCC[C@H](C)CCCC(C)C)O2 [ALPHA-TOCOPHEROL]
(A) Non-toxic

(Q) What value of Activity has been reported for the following compound? Cc1c(O)cc2c([nH]c3ccccc32)c1CC(C)O (stereo unspecified)
(A) Non-toxic

(Q) What value of Activity has been reported for the following compound? CCCCCCCc1c(C)c(O)cc2c1[nH]c1ccccc12
(A) Non-toxic

(Q) What value of Activity has been reported for the following compound? CC[C@H](C)CC/C(C)=C/c1c(C)c(O)cc2c1[nH]c1c(O)ccc(C=O)c12
(A) Non-toxic

(Q) What value of Activity has been reported for the following compound? CCCOC(=O)c1cc(O)c(O)c(O)c1 [PROPYL GALLATE]
(A) Non-toxic

---

experimental.protocol: Antioxidant activity assessed as reduction of Cu2+ to Cu+ after 3 mins by PAO-SO method
Type: physicochemical
condition: 0.05 h
Define the label as true (1) when Activity is strictly less than 3000 µmol/L and as false (0) in all remaining cases.

>>> category("CC1=NN(c2ccccc2)C(=O)C1 [EDARAVONE]")
"false (0)"
>>> category("CC(C)=CCc1ccc2[nH]c3c(CC(C)O)c(C)c(O)cc3c2c1 (stereo unspecified)")
"true (1)"
>>> category("CC(C)=CCc1ccc2[nH]c3c(c2c1)C(=O)C(=O)C(C)=C3CC(C)O (stereo unspecified)")
"true (1)"
>>> category("CCCCCCCc1c(C)c(O)cc2c1[nH]c1ccccc12")
"true (1)"
>>> category("CC[C@H](C)CC/C(C)=C/c1c(C)c(O)cc2c1[nH]c1c(O)ccc(CO)c12")
"false (0)"

(Q) Is 3000 µmol/L strictly greater than the molecule's reported Activity? molecule: CC[C@H](C)CC/C(C)=C/c1c(C)c(O)cc2c1[nH]c1c(O)ccc(C=O)c12
(A) false (0)

(Q) Is 3000 µmol/L strictly greater than the molecule's reported Activity? molecule: C/C(=C\c1c(C)c(O)cc2c1[nH]c1c(O)ccc(CO)c12)CCC(C)C
(A) false (0)

(Q) Is 3000 µmol/L strictly greater than the molecule's reported Activity? molecule: CCCOC(=O)c1cc(O)c(O)c(O)c1 [PROPYL GALLATE]
(A) false (0)

(Q) Is 3000 µmol/L strictly greater than the molecule's reported Activity? molecule: C/C(=C\c1c(C)c(O)cc2c1[nH]c1c(O)ccc(C=O)c12)CCC(C)C
(A) false (0)

(Q) Is 3000 µmol/L strictly greater than the molecule's reported Activity? molecule: Cc1c(O)cc2c([nH]c3ccccc32)c1CC(C)O (stereo unspecified)
(A) true (1)

Data origin: ChEMBL document CHEMBL3351940
